experiment description: Selectivity ratio of inhibition for PDE3A (M1 to Q1141 residues) (unknown origin) by IMAP assay to inhibition for PDE3B (M1 to E1112 residues) (unknown origin) by IMAP assay
quantity name: Selectivity ratio

Answered examples (2):
>>> test_result("COc1ccc2c(OC)cc(C(=O)Nc3cc(B(O)O)cc(C(=O)NCC(C)OC)c3)nc2c1 (stereo unspecified)")
14
>>> test_result("CNC(=O)[C@@H](NC(=O)c1cc(NC(=O)c2cc(OC)c3ccc(OC)cc3n2)cc(B(O)O)c1)C1CCCCC1")
12

[P] COc1ccc2c(OC)cc(C(=O)Nc3cc(B(O)O)cc(C(=O)N4CCCC4)c3)nc2c1
[Q] CNC(=O)[C@@H](NC(=O)c1cc(NC(=O)c2ccc3ncccc3n2)cc(B(O)O)c1)C1CCCCC1
[R] CNC(=O)[C@H](NC(=O)c1cc(NC(=O)C(C)Oc2c(C)cccc2C)cc(B(O)O)c1)C1CCCCC1 (stereo partly specified)
[S] CNC(=O)[C@@H](NC(=O)c1cc(NC(=O)c2ccc3cc(OC)ccc3n2)cc(B(O)O)c1)C1CCCCC1
[T] CNC(=O)[C@@H](C)NC(=O)c1cc(NC(=O)c2cc(OC)c3ccc(OC)cc3n2)cc(B(O)O)c1
*Q* List from greatest to least Selectivity ratio. Returns: the labels arranged in the requested order.
*A* P, T, R, S, Q
(P: 46, T: 24, R: 3.3, S: 1.2, Q: 0.7)
